Biological target: UniProt:E9AFX2
Sequence (E9AFX2 whole entry): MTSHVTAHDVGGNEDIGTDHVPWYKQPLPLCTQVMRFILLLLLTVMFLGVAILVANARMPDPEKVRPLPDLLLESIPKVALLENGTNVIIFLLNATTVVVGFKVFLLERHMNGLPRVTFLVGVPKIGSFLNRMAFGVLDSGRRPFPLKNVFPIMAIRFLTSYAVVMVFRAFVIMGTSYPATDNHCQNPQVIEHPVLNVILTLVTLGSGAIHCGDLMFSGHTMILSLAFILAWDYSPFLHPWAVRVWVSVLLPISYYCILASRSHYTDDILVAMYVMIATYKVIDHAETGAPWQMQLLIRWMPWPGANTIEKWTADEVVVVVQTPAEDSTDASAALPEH
Assay: biochemical
Format: biochemical
Settings: read-out: 20mM inhibition LmjIPCS
Quantity measured: inhibition at 20000 µM (%)
The answer is to be given in %; state only the numeric part.

Item under review: O=C(O)c1cccnc1 . Reported inhibition at 20000 µM?
15

Item under review: CCOC(=O)[N-]c1cn(N2CCOCC2)n[o+]1 . Reported inhibition at 20000 µM?
-0.951

Item under review: CCCC(=O)O[C@]1(C(=O)CO)CC[C@H]2[C@@H]3CCC4=CC(=O)CC[C@]4(C)[C@H]3[C@@H](O)C[C@@]21C [HYDROCORTISONE BUTYRATE] . Reported inhibition at 20000 µM?
5.61

Item under review: O=C(Cn1ccnc1[N+](=O)[O-])NCCO . Reported inhibition at 20000 µM?
3.58

Item under review: CC(=O)N[C@@H](CCC(=O)O)C(=O)O [ACET[…]] . Reported inhibition at 20000 µM?
-20

Item under review: Cc1ncc(CNC(=O)N(CCCl)N=O)c(N)n1 . Reported inhibition at 20000 µM?
20

Item under review: CN(C)[C@@H]1C(O)=C(C(N)=O)C(=O)[C@@]2(O)C(O)=C3C(=O)c4c(O)cccc4[C@@](C)(O)[C@H]3[C@H](O)[C@@H]12 . Reported inhibition at 20000 µM?
18

Item under review: O=C(O)CCCc1ccccc1 [PHENYLBUTYRATE] . Reported inhibition at 20000 µM?
1.15

Item under review: COc1c(N2C[C@@H]3CCCN[C@@H]3C2)c(F)cc2c(=O)c(C(=O)O)cn(C3CC3)c12 . Reported inhibition at 20000 µM?
16

Item under review: CC(C(=O)O)c1ccc(C(=O)c2cccs2)cc1 (stereo not shown) . Reported inhibition at 20000 µM?
5
